- assay-overview: chemical genetic growth profiling, strain panel (AID 1159580);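 further: tested at 20 µM; growth read once vehicle control cultures reached saturation at 30 °C; lower values mean less growth of the strain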
- condition-set: S. cerevisiae deletion strains, growth OD, locus YDL017W, strain CDC7
Screen size: about 5,500 compounds; about 2,000 (36%) were called active. Inconclusive results (about 18%) are left out. No stated cut-off is given here; in the data, active means normalized growth mostly below about 0.91 (no sharp cut-off); inconclusive means no clear call, values can overlap the other calls; inactive means mostly above about 0.92. This is one part of the list.
Pick one: yes = active, no = inactive

Reference set, count: 5
CN(C)C=Nc1nnc(Sc2nc3c(Cl)cc(Cl)cc3s2)s1 :: no
O=C1Nc2ccccc2/C1=C\c1ccc(Cl)cc1 :: no
O=C1Nc2ccccc2/C1=C\c1cccc([N+](=O)[O-])c1 :: no
O=S(=O)(CS(=O)(=O)Oc1ccc(Cl)c(Cl)c1)Oc1ccc(Cl)c(Cl)c1 :: no
FC(F)(F)c1ccc(N2CCc3ccccc3C2)c(NC(=S)Nc2cc(Cl)cc(Cl)c2)c1 :: no

-- ask Write down the call the test reported for this compound. Item: CCCCNC(=S)N/N=C\c1cc(Cl)cc(Cl)c1O
-- reply no

-- ask Write down the call the test reported for this compound. Item: O=C(Nc1ccccc1)Nc1ccc(Cl)cc1[N+](=O)[O-]
-- reply no
